Cited source for all entries: patent US9718835B2

# pIC50 per record follows
- Test system: A-549 (lung carcinoma)
- Experiment summary: Sulforhodamine B cytotoxicity assay, A-549
- Format: cell-based, human
- Experimental context: Table 1; 72 h; average ± SD
pIC50: −log10 of the molar value.

Compound	pIC50
CCC(C)C(NC(Cc1ccc(OC)cc1)=NS(=O)(=O)c1ccc(C)cc1)C(=O)O[C@]1(CC)C(=O)OCc2c1cc1n(c2=O)Cc2cc3ccccc3nc2-1 (stereo partly drawn)	5.92
CC[C@@]1(OC(=O)CNC(Cc2ccc(OC)cc2)=NS(=O)(=O)c2ccc(C)cc2)C(=O)OCc2c1cc1n(c2=O)Cc2cc3ccccc3nc2-1	7.51
CC[C@@]1(OC(=O)C(CC(C)C)NC(Cc2ccc(OC)cc2)=NS(=O)(=O)c2ccc(C)cc2)C(=O)OCc2c1cc1n(c2=O)Cc2cc3ccccc3nc2-1 (stereo partly drawn)	6.02
CC[C@@]1(OC(=O)C(C)NC(Cc2ccc(OC)cc2)=NS(=O)(=O)c2ccc(C)cc2)C(=O)OCc2c1cc1n(c2=O)Cc2cc3ccccc3nc2-1 (stereo partly drawn)	7.05
CC[C@@]1(OC(=O)CNC(Cc2ccccc2)=NS(=O)(=O)c2ccc(C)cc2)C(=O)OCc2c1cc1n(c2=O)Cc2cc3ccccc3nc2-1	7.24
CC[C@@]1(OC(=O)C(C)NC(Cc2ccccc2)=NS(=O)(=O)c2ccc(C)cc2)C(=O)OCc2c1cc1n(c2=O)Cc2cc3ccccc3nc2-1 (stereo partly drawn)	7.15

====

- Tested on: A-549 (lung carcinoma)
- Experiment summary: Sulforhodamine B cytotoxicity assay, A-549
- Assay type: cell-based, human
- Experimental context: Table 1; 72 h; average ± SD
pIC50: −log10 of the molar value.
Endpoint label: pIC50

> print(dat)
                                   compound  endpoint.label  measurement
1  CC[C@@]1(OC(=O)C(CC(C)C)NC(Cc2ccccc2)=NS(=O)(=O)c2ccc(C)cc2)C(=O)OCc2c1cc1n(c2=O)Cc2cc3ccccc3nc2-1 (stereo partly drawn)           pIC50         6.05
2  CC[C@@]1(OC(=O)C(Cc2ccccc2)NC(CCO)=NS(=O)(=O)c2ccc(C)cc2)C(=O)OCc2c1cc1n(c2=O)Cc2cc3ccccc3nc2-1 (stereo partly drawn)           pIC50         7.08
3  CC[C@@]1(OC(=O)C(NC(Cc2ccccc2)=NS(=O)(=O)c2ccc(C)cc2)C(C)C)C(=O)OCc2c1cc1n(c2=O)Cc2cc3ccccc3nc2-1 (stereo partly drawn)           pIC50         5.89

====

- Tested on: HCT 116 (Colon cancer)
- Experiment summary: cells
- Type: cell-based, human
- Experimental context: Homo sapiens, HCT-116, read-out: In vitro cytotoxicity HCT 116 (Colon cancer)
pIC50: −log10 of the molar value.

Compound	pIC50
CCc1c2c(nc3ccc(OC(=O)N4CCC(N5CCCCC5)CC4)cc13)-c1cc3c(c(=O)n1C2)COC(=O)[C@@]3(CC)OC(=O)CNC(Cc1ccc(OC)cc1)=NS(=O)(=O)c1ccc(C)cc1 [Compound Wcpt-39]	4.90

====

- Test system: A-549 (lung carcinoma)
- Experiment summary: Sulforhodamine B cytotoxicity assay, A-549
- Assay type: cell-based, human
- Experimental context: Homo sapiens, A549; Table 1; 72 h; average ± SD
Endpoint label: IC50 (µM)

Compound	Measurement unit	Measurement
CCc1c2c(nc3ccc(OC(=O)N4CCC(N5CCCCC5)CC4)cc13)-c1cc3c(c(=O)n1C2)COC(=O)[C@]3(O)CC [Compound 3, irinotecan, reference compound]	µM	9.5

====

- Tested on: A-549 (lung carcinoma)
- Experiment summary: Sulforhodamine B cytotoxicity assay, A-549
- Type: cell-based, human
- Experimental context: Table 1; 72 h; average ± SD
# IC50 per record follows

Compound	Target under test	IC50 [µM]
CC[C@@]1(OC(=O)C(NC(Cc2ccc(OC)cc2)=NS(=O)(=O)c2ccc(C)cc2)C(C)C)C(=O)OCc2c1cc1n(c2=O)Cc2cc3ccccc3nc2-1 (stereo partly drawn) [Compound 9e]	A-549 (lung carcinoma)	1
CC[C@@]1(OC(=O)C(Cc2ccccc2)NC(Cc2ccc(OC)cc2)=NS(=O)(=O)c2ccc(C)cc2)C(=O)OCc2c1cc1n(c2=O)Cc2cc3ccccc3nc2-1 (stereo partly drawn) [Compound 9k]	A-549 (lung carcinoma)	0.12
CCC(C)C(NC(Cc1ccccc1)=NS(=O)(=O)c1ccc(C)cc1)C(=O)O[C@]1(CC)C(=O)OCc2c1cc1n(c2=O)Cc2cc3ccccc3nc2-1 (stereo partly drawn) [Compound 9j]	A-549 (lung carcinoma)	6.5

====

- Tested on: MDA-MB-231 (triple-negative breast cancer)
- Experiment summary: Sulforhodamine B cytotoxicity assay, MDA-MB-231
- Assay type: cell-based
- Experimental context: Homo sapiens, Table 4, read-out: IC50 (Average ± SD) MDA-MB-231
pIC50: −log10 of the molar value.
Endpoint label: pIC50

> print(dat)
                                   compound  measurement
1  CC[C@@]1(O)C(=O)OCc2c1cc1n(c2=O)Cc2cc3c(CN(C)C)c(O)ccc3nc2-1 [Compound 2, topotecan, reference compound]         7.00

====

- System: A549 (Lung cancer)
- Experiment summary: cells
- Format: cell-based, human
- Experimental context: Table 6; read-out: In vitro cytotoxicity A549 (Lung cancer)
# IC50 per record follows
Endpoint label: IC50

> print(dat)
                         compound.structure  endpoint.label  measurement
1  CC[C@@]1(OC(=O)CNC(Cc2ccc(OC)cc2)=NS(=O)(=O)c2ccc(C)cc2)C(=O)OCc2c1cc1n(c2=O)Cc2cc3ccccc3nc2-1            IC50      80.3 nM
2  CCc1c2c(nc3ccccc13)-c1cc3c(c(=O)n1C2)COC(=O)[C@@]3(CC)OC(=O)CNC(Cc1ccc(OC)cc1)=NS(=O)(=O)c1ccc(C)cc1            IC50      48.3 nM

====

- Test system: HCT 116 (Colon cancer)
- Experiment summary: cells
- Format: cell-based, human
- Experimental context: Table 6; read-out: In vitro cytotoxicity HCT 116 (Colon cancer)
Endpoint label: IC50

> print(dat)
                                   compound  endpoint.label  measurement
1  CCc1c2c(nc3ccccc13)-c1cc3c(c(=O)n1C2)COC(=O)[C@@]3(CC)OC(=O)CNC(Cc1ccc(OC)cc1)=NS(=O)(=O)c1ccc(C)cc1 [Wcpt-03]            IC50       208 nM
2  CC[C@@]1(OC(=O)CNC(Cc2ccc(OC)cc2)=NS(=O)(=O)c2ccc(C)cc2)C(=O)OCc2c1cc1n(c2=O)Cc2cc3ccccc3nc2-1 [Compound 9a]            IC50      46.1 nM

====

# log10 IC50 per record follows
- Tested on: KBvin (vincristine-resistant KB subline)
- Experiment summary: Sulforhodamine B cytotoxicity assay, KBvin
- Assay type: cell-based, human
- Experimental context: Table 1; 72 h; average ± SD; read-out: IC50 KBvin
- Excerpt: The human tumor cell lines used in this manuscript were A-549 (lung carcinoma), MDA-MB-231 (triple-negative breast cancer), DU-145 (hormone-insensitive prostate cancer), KB (originally isolated from epidermoid carcinoma of the nasopharynx), KBvin (vincristine-resistant KB subline), and HCT116 (colorectal adenocarcinoma). These cell lines were obtained from the Lineberger Comprehensive Cancer Center (UNC-CH) or from ATCC (Manassas, Va.), except KBvin, which was a generous gift of Professor Y.-C. […]
Endpoint label: log10 IC50 (log10 of the value in nM)

Compound	Measurement
CC[C@@]1(OC(=O)C(NC(Cc2ccc(OC)cc2)=NS(=O)(=O)c2ccc(C)cc2)C(C)C)C(=O)OCc2c1cc1n(c2=O)Cc2cc3ccccc3nc2-1 (stereo partly drawn)	3.18
CC[C@@]1(OC(=O)C(Cc2ccccc2)NC(CCO)=NS(=O)(=O)c2ccc(C)cc2)C(=O)OCc2c1cc1n(c2=O)Cc2cc3ccccc3nc2-1 (stereo partly drawn)	2.15
CCC(C)C(NC(Cc1ccc(OC)cc1)=NS(=O)(=O)c1ccc(C)cc1)C(=O)O[C@]1(CC)C(=O)OCc2c1cc1n(c2=O)Cc2cc3ccccc3nc2-1 (stereo partly drawn)	3.23
CC[C@@]1(OC(=O)C(C)NC(Cc2ccc(OC)cc2)=NS(=O)(=O)c2ccc(C)cc2)C(=O)OCc2c1cc1n(c2=O)Cc2cc3ccccc3nc2-1 (stereo partly drawn)	1.94
CCC(C)C(NC(Cc1ccccc1)=NS(=O)(=O)c1ccc(C)cc1)C(=O)O[C@]1(CC)C(=O)OCc2c1cc1n(c2=O)Cc2cc3ccccc3nc2-1 (stereo partly drawn)	3.91
CC[C@@]1(OC(=O)CNC(Cc2ccccc2)=NS(=O)(=O)c2ccc(C)cc2)C(=O)OCc2c1cc1n(c2=O)Cc2cc3ccccc3nc2-1	2.00
CC[C@@]1(OC(=O)C(CC(C)C)NC(Cc2ccc(OC)cc2)=NS(=O)(=O)c2ccc(C)cc2)C(=O)OCc2c1cc1n(c2=O)Cc2cc3ccccc3nc2-1 (stereo partly drawn)	3.00
CC[C@@]1(OC(=O)C(NC(Cc2ccccc2)=NS(=O)(=O)c2ccc(C)cc2)C(C)C)C(=O)OCc2c1cc1n(c2=O)Cc2cc3ccccc3nc2-1 (stereo partly drawn)	3.34
CC[C@@]1(OC(=O)C(Cc2ccccc2)NC(Cc2ccc(OC)cc2)=NS(=O)(=O)c2ccc(C)cc2)C(=O)OCc2c1cc1n(c2=O)Cc2cc3ccccc3nc2-1 (stereo partly drawn)	2.08
CC[C@@]1(OC(=O)C(C)NC(Cc2ccccc2)=NS(=O)(=O)c2ccc(C)cc2)C(=O)OCc2c1cc1n(c2=O)Cc2cc3ccccc3nc2-1 (stereo partly drawn)	1.98
CC[C@@]1(OC(=O)C(CC(C)C)NC(Cc2ccccc2)=NS(=O)(=O)c2ccc(C)cc2)C(=O)OCc2c1cc1n(c2=O)Cc2cc3ccccc3nc2-1 (stereo partly drawn)	3.26
CC[C@@]1(OC(=O)CNC(Cc2ccc(OC)cc2)=NS(=O)(=O)c2ccc(C)cc2)C(=O)OCc2c1cc1n(c2=O)Cc2cc3ccccc3nc2-1	1.41
